Origin of measurements: PubChem BioAssay (NCI)

Catalogue of molecules with associated TGI
# Tested on: HOP-92 NSCLC
# RUN_DESCRIPTION: NCI tumour cell line growth inhibition, 48 h

Illustrative cases are given below, each with its answer.
{"columns": ["MOLECULE", "TGI"],
 "data": [
  ["Cc1c(Cl)ccc2c(=O)c3cccc(CC(=O)O)c3oc12", "> 100 µM"],
  ["CC(=O)C(CN1CCCCC1)C(c1ccccc1)c1c(O)c2ccccc2oc1=O (configuration not stated)", "> 100 µM"],
  ["N#CC1(c2nc3ccccc3o2)C(=O)C(=O)N(C2C3CC4CC(C3)CC2C4)C(=O)C1=O (configuration not stated)", "> 100 µM"],
  ["O=C(NS(=O)(=O)Nc1ccc(Cl)cc1)OCc1ccc(Cl)cc1Cl", "61.9 µM"],
  ["CCOC(=O)C(OCC1CC=CCC1)Sc1ccccc1 (configuration not stated)", "> 100 µM"]
]}

Ask: Return TGI measured with HOP-92 NSCLC given this molecule: Cc1cc([C@@H](C)Nc2ccccc2C(=O)O)c2nc(N3CCOCC3)cc(=O)n2c1
Reply: 6.08 µM

Ask: Query Cc1ccn2c3c(c(C(=O)O)c2c1)C(=O)c1ccccc1C3=O next
Reply: > 100 µM

Ask: Query Nc1nc2ncc(SCc3ccc(C(=O)NC(CCC(=O)O)C(=O)O)cc3)cc2c(=O)[nH]1 (configuration not stated) next
Reply: > 100 µM

Ask: Query O=C1/C(=C/c2ccc(F)cc2)CCOc2ccc([N+](=O)[O-])cc21 next
Reply: 40.2 µM

Ask: Query C=CC1=CSNN1 next
Reply: > 100 µM

Ask: Query O=C(Cc1nc2ccc(C(=O)c3ccccc3)cc2[nH]c1=O)C(=O)Nc1ccc(Br)cc1 next
Reply: > 100 µM

Ask: Query [N-]=[N+]=Nc1c(Cl)c(=O)n(-c2ccccc2)c2ccccc12 next
Reply: 38.3 µM

Ask: Query N#Cc1c(-c2cccs2)c2c(=S)[nH]c(=S)[nH]c2[nH]c1=S next
Reply: > 100 µM

Ask: Query FC(F)(F)c1nc(-c2ccccc2Cl)[nH]c1C(F)(F)F next
Reply: 1.22 µM

Ask: Query CC[C@@H]1CC[C@@H]2[C@H](CC[C@]3(C)[C@@H](O)CC[C@@H]23)[C@H]1C(=O)O next
Reply: > 100 µM

Ask: Query O=c1[nH]cnc2c(C3OC(CO)C(O)C3O)c[nH]c12 (configuration not stated) next
Reply: > 100 µM

Ask: Query Cc1ccc2c(c1C)CC1(Cc3c(ccc4c3CCC4)C1=O)C2=O (configuration not stated) next
Reply: > 100 µM

Ask: Query Cc1cc2c(c(C(=O)NCCC(=O)O)c1)Oc1c(cc(C)cc1C(=O)NCCC(=O)O)S2 next
Reply: > 100 µM

Ask: Query COc1cc(COC(=O)N[C@H](C(=O)O)C(C)(C)C)c([N+](=O)[O-])cc1OC next
Reply: > 100 µM

* * *

# Tested on: A498 renal
# RUN_DESCRIPTION: NCI tumour cell line growth inhibition, 48 h
Decision: TGI >= 30 µM yields T, all other cases yield F.

Known results for compounds:
{"columns": ["COMPOUND", "ASSAYED_TARGET", "GROUP"],
 "data": [
  ["CC1(C)N=C(N)N=C(N)N1c1ccc(CCCCc2ccc(S(=O)(=O)F)cc2)cc1", "A498 renal", "T"],
  ["O=C1CCCN(c2ccccc2)N1", "A498 renal", "T"],
  ["c1sc(NC2=NCCO2)c2c1CCCC2", "A498 renal", "T"]
]}

Ask: Exam item: decide whether the reported TGI for CC(=O)OCC1OC(O[C@@H]2C[C@H]3C(C)(C)[C@H](OC(C)=O)CC[C@]3(C)[C@H]3CCC4=C([C@@H](C)C[C@@H](O)[C@H](O)C(C)(C)O)CC[C@@]4(C)[C@@]32C)C(O)C(O)C1O (stereo partly specified) is at least 30 µM.
Reply: T

Ask: Query COC(=O)C1=C(C(=O)OC)C2OC1C1C2C2(C)C(C)=C(C)C1(C)S2=O (stereo unspecified) next
Reply: T

Ask: Query COc1ccc(C(=O)Nc2ncc(Cc3ccc(Cl)cc3)s2)cc1 next
Reply: F

Ask: Query COC(=O)c1cc(CC(C)C)c2c(c1)[nH]c1ccccc12 next
Reply: T
